Measured GI50 by item
- Tested on: HOP-62
- experiment description: NCI tumour cell line growth inhibition, 48 h
Activity calls are given as the source filed them. Rule as the data show it: active = GI50 up to about 1.1 µM and inactive = higher.
endpoint: GI50

1) Oc1cc(-c2ccccn2)nc2cccc(F)c12
> 100 µM (inactive)
2) COC(=O)CCC12CCC(O1)c1ccccc12 (stereo unspecified)
> 100 µM (inactive)
3) NC(=O)C(=O)c1ncn(Cc2ccccc2)c1N
> 100 µM (inactive)
4) Nc1nc(N)c(/N=N/c2ccc(C(=O)O)c(O)c2)c(N)n1
> 100 µM (inactive)
5) O=C(NCCCCCCNC(=O)c1cccc2ccccc12)Nc1cccc2ccccc12
> 100 µM (inactive)
6) CN(C)CCNC(=O)c1cccc2cc3c(Cl)cccc3nc12
0.718 µM (active)

Data provenance: ChEMBL document CHEMBL1201862
